tested on: NCI-H23; test: NCI tumour cell line growth inhibition, 48 h
The source made the active and inactive calls. Cut-off read from the data, not from the text of the source: active = GI50 up to about 1.1 µM and inactive = higher.
Classes used: active, inactive

# COMPOUND, SYSTEM_NAME, GROUP_LABEL
rows = [
    ("C=CCOCCC(CC=C)C(=O)CC(=O)OC (centres undefined)", "NCI-H23", "inactive"),
    ("O=C(N/N=C/c1ccc(Br)cc1)N/N=C/c1ccc(Br)cc1", "NCI-H23", "inactive"),
    ("CC(=O)SCCC1c2[nH]c3ccccc3c2CCN1O (centres undefined)", "NCI-H23", "inactive"),
    ("CC1=NN(C(=O)Cc2ccccc2)C(=O)/C1=C\\c1cccc(O)c1", "NCI-H23", "inactive"),
    ("C[C@H]1[C@H](C)CC[C@]2(C(=O)OC3OC(CO)C(O)C(O)C3O)CC[C@]3(C)C(=CC[C@@H]4[C@@]5(C)C[C@H]6OC(=O)c7cc(O)c(O)c(O)c7-c7c(cc(O)c(O)c7O)C(=O)O[C@@H]6C(CO)(CO)[C@@H]5CC[C@]43C)[C@H]12 (some centres undefined)", "NCI-H23", "inactive"),
    ("CCCCOC(=O)C1C2CCC(O2)C1C(=O)OCCCC (centres undefined)", "NCI-H23", "inactive"),
    ("CC(C)(C)[Si](C)(C)OCC1OC(n2cc(F)c(=O)[nH]c2=O)CC1O[Si](C)(C)C(C)(C)C (centres undefined)", "NCI-H23", "inactive"),
    ("CC(NNC(=O)CC(=O)N(C(=O)c1ccccc1)c1ccc(Cl)cc1)c1cc2ccccc2oc1=O (centres undefined)", "NCI-H23", "inactive"),
    ("COc1ccc(/C=C\\c2cc(OC)c(OC)c(OC)c2)cc1OC(=O)CC(N)C(=O)O (centres undefined)", "NCI-H23", "active"),
    ("CCOC(=O)C1Cc2c(ccc(OC)c2OC)C(=O)C1N (centres undefined)", "NCI-H23", "inactive"),
    ("COc1ccccc1-c1cc(O)c2cc3c(cc2n1)OCO3", "NCI-H23", "inactive"),
    ("CCOc1cc(-c2nc3ccccn3c2/N=C/c2cc([N+](=O)[O-])cc([N+](=O)[O-])c2O)ccc1O", "NCI-H23", "inactive"),
    ("CC(C)C1=CC23CCC4C(C)(C(=O)O)CCCC4(C)C2CC1C1C(=O)N(c2ccccc2N2C(=O)C4C5CC6C7(C)CCCC(C)(C(=O)O)C7CCC6(C=C5C(C)C)C4C2=O)C(=O)C13 (centres undefined)", "NCI-H23", "inactive"),
    ("COc1ccc(-c2cc(O)c3cc4c(cc3n2)OCO4)cc1OC", "NCI-H23", "inactive"),
    ("Cc1c(Cl)c(=O)oc2cc(OCC(=O)c3ccccc3)ccc12", "NCI-H23", "inactive"),
    ("COc1cccc(C=C(C#N)C#N)c1OC", "NCI-H23", "inactive"),
    ("C/C=C/COc1cc(NC(=S)OC(C)C)ccc1Cl.C/C=C\\COc1cc(NC(=S)OC(C)C)ccc1Cl", "NCI-H23", "inactive"),
    ("CC1(C)CC23C(=O)N(c4ccccc4)C(Nc4ccccc4)=NC2=CC(C#N)=C(C#N)C3O1 (centres undefined)", "NCI-H23", "inactive"),
    ("[N-]=[N+]=Nc1ccc(NCCCCCC(=O)ON2C(=O)CCC2=O)c([N+](=O)[O-])c1", "NCI-H23", "inactive"),
]
